Listing of recorded fold increase in affinity as compared to the WT mouse leptin antagonist by entry.
target entity: T1, Recombinant human leptin binding domain (hLBD) (human, UniProt P48357 428-635, biotinylated with Sulfo-NHS-LC-Biotin in the yeast display assays; not labelled when immobilized in the plate binding assay)
T1 construct: CRH2 sub-domain of the leptin receptor; Prepared in the applicants' laboratory; also called soluble human leptin receptor; CHR2
T1 sequence (looked up): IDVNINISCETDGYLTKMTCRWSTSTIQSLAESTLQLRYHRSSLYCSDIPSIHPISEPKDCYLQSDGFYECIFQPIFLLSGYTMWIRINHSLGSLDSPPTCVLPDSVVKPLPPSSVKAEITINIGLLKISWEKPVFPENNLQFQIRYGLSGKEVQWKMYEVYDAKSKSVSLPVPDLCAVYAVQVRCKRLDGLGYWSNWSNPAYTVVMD
assay method text: competitive plate binding assay: immobilized hLBD, biotinylated mouse leptin as ligand, mutein as competitor
Give the value, in units of fold, as a plain number.

Observe how each entry below is paired with its result.
Reported fold increase in affinity as compared to the WT mouse leptin antagonist, binder mouse leptin antagonist H22 (T12I + L39A/D40A/F41A) (ligand, mature; also called H22 (antagonist)) AVPIQKVQDDTKILIKTIVTRINDISHTQSVSAKQRVTGAAAIPGLHPILSLSKMDQTLAVYQQVLTSLPSQNVLQIANDLENLRDLLHLLAFSKSCSLPQTSGLQKPESLDGVLEASLYSTEVVALSRLQGSLQDILQQLDVSPEC : ____
11.2

# fold increase in affinity as compared to the WT mouse leptin antagonist lookup, item mouse leptin antagonist H15 (D23G, L68M, S97F, S132Y + L39A/D40A/F41A) (ligand, mature; also called H15 (antagonist)) AVPIQKVQDDTKTLIKTIVTRINGISHTQSVSAKQRVTGAAAIPGLHPILSLSKMDQTLAVYQQVLTSMPSQNVLQIANDLENLRDLLHLLAFSKSCFLPQTSGLQKPESLDGVLEASLYSTEVVALSRLQGYLQDILQQLDVSPEC
12.4

For mouse leptin antagonist D23H/L39A/D40A/F41A (ligand, mature; also called H30 (antagonist); D23H MLA) AVPIQKVQDDTKTLIKTIVTRINHISHTQSVSAKQRVTGAAAIPGLHPILSLSKMDQTLAVYQQVLTSLPSQNVLQIANDLENLRDLLHLLAFSKSCSLPQTSGLQKPESLDGVLEASLYSTEVVALSRLQGSLQDILQQLDVSPEC , what is its reported fold increase in affinity as compared to the WT mouse leptin antagonist?
34

Sample mouse leptin antagonist H16 (D23G, G112S + L39A/D40A/F41A) (ligand, mature; also called H16 (antagonist)) AVPIQKVQDDTKTLIKTIVTRINGISHTQSVSAKQRVTGAAAIPGLHPILSLSKMDQTLAVYQQVLTSLPSQNVLQIANDLENLRDLLHLLAFSKSCSLPQTSGLQKPESLDSVLEASLYSTEVVALSRLQGSLQDILQQLDVSPEC — what was its fold increase in affinity as compared to the WT mouse leptin antagonist?
11

Continuing:
For mouse leptin antagonist H12 (S97Y + L39A/D40A/F41A) (ligand, mature; also called H12 (antagonist)) AVPIQKVQDDTKTLIKTIVTRINDISHTQSVSAKQRVTGAAAIPGLHPILSLSKMDQTLAVYQQVLTSLPSQNVLQIANDLENLRDLLHLLAFSKSCYLPQTSGLQKPESLDGVLEASLYSTEVVALSRLQGSLQDILQQLDVSPEC , what is its reported fold increase in affinity as compared to the WT mouse leptin antagonist?
1.4

// returns reported fold increase in affinity as compared to the WT mouse leptin antagonist for input mouse leptin antagonist H19 (D23G, T37A, G44D + L39A/D40A/F41A) (ligand, mature; also called H19 (antagonist)) AVPIQKVQDDTKTLIKTIVTRINGISHTQSVSAKQRVAGAAAIPDLHPILSLSKMDQTLAVYQQVLTSLPSQNVLQIANDLENLRDLLHLLAFSKSCSLPQTSGLQKPESLDGVLEASLYSTEVVALSRLQGSLQDILQQLDVSPEC
6.1

All figures here come from patent US20130133089A1.
